Provenance of the data: ChEMBL document CHEMBL3997846

pIC50 overview
- Tested on: L6
- assayNotes: Cytotoxicity against rat L6 cells assessed as growth inhibition after 72 hrs by alamar blue assay
- Type: cell-based
- reportedConditions: L6, 72 h
# log scale: pIC50 equals minus log10 of the concentration in mol/L

Consider the following illustrative entries.
# compound, number
records = [
    ("CCN(CC)CCCC(C)Nc1ccnc2cc(Cl)ccc12 (stereo unspecified) [CHLOROQUINE]", 4.04),
    ("CC(=O)NC[C@H]1O[C@@H](n2cnc3c(N)nc(Cl)nc32)[C@H](O)[C@@H]1O", 3.72),
    ("CC(=O)O[C@@H]1[C@H](OC(C)=O)[C@@H](C[S+](C)[O-])O[C@H]1n1cnc2c(N)nc(Cl)nc21 (stereo partly specified)", 3.77),
    ("CNc1nc(NC)c2ncn([C@@H]3O[C@H](C)[C@@H](O)[C@H]3O)c2n1", 3.73),
]

*Q* Quick one: pIC50 for CS(=O)(=O)C[C@H]1O[C@@H](n2cnc3c(N)nc(Cl)nc32)[C@H](O)[C@@H]1O ?
*A* 3.81

*Q* Please report the recorded pIC50 for CC(=O)O[C@@H]1[C@H](OC(C)=O)[C@@H](CI)O[C@H]1n1cnc2c(N)nc(F)nc21 .
*A* 5.20

*Q* Name the reported pIC50 value associated with the compound CCCCCCCCCCCCCCCCOP(=O)([O-])OCC[N+](C)(C)C [MILTEFOSINE]
*A* 3.86

*Q* Which value of pIC50 has been reported for CSC[C@H]1O[C@@H](n2cnc3c(N)nc(F)nc32)[C@H](OC(C)=O)[C@@H]1OC(C)=O in the records?
*A* 4.82
